target: HLA-B*18:01 (human); assay: radioligand competition, purified MHC; conditions: remark: other sources report otherwise
pIC50: −log10 of the molar value.
Each entry below carries its recorded pIC50.

{"binder": "FGDDTVIEV (modifications not checked) [… (SEQ ID NO: 23)]", "metric": "pIC50", "result": "< 4.15"}

Looking up KRVDWTIEY (modifications not checked) [… (SEQ ID NO: 29)] , I found its pIC50 recorded as < 4.15
